Origin of values: ChEMBL document CHEMBL1136326

- Test system: Staphylococcus aureus
- protocol: Minimal inhibitory concentration (antibacterial activity) against Staphylococcus aureus Oxford (SAUR)
- Assay type: functional
- condition parameters: Staphylococcus aureus; read-out: MIC
Answer each item with its documented MIC.
Please respond with the number in µg/mL and leave the unit unwritten.

I would be grateful if you could share the reported MIC for CCCc1c(OC[C@@H](O)COc2ccc(/C=C3\SC(=O)NC3=O)cc2)ccc(Cl)c1Cl . 2

Quick one: MIC of CCCc1c(OCC(N)COc2ccc(/C=C3\SC(=O)NC3=O)cc2)ccc(Cl)c1Cl (stereo not given) ? 16

Entry CCCc1c(OCC(O)COc2ccc(/C=C3\OC(=O)NC3=O)cc2)ccc(Cl)c1Cl (stereo not given) has what MIC? 16

Give the measured MIC of CCCc1ccccc1OCC(O)COc1ccc(/C=C2\SC(=O)NC2=O)cc1 (stereo not given) . 16
